Biological target: chitinase B1 from Aspergillus fumigatus (AfChiB1) (Aspergillus fumigatus, UniProt Q873X9)
Construct: made in house; host or cells: Escherichia coli
Assay: biochemical
Details: read-out: IC50 against AfChiB1
REPORTED_METRIC: IC50 (µM)

> print(dat)
                                   molecule  observed
1  CNC(=O)NC(=N)NCCCC(NC(C)=O)C(=O)NC (stereo not shown) [Monopeptide]        81
